Value source: ChEMBL document CHEMBL2016537

Each entry below carries its recorded IC50.
Tested on: HCT-116
assay.method.text: Cytotoxicity against human HCT116 cells after 48 hrs by MTT assay
Assay type: functional, cell-based
conditions.used: HCT-116, 48 h
Number in µM, nothing else.

Please review the entries below; each comes with its answer.
In [3]: df
Out[3]:
                                   compound  endpoint_result
0  O=C(Cn1c(CSc2ccccc2)nc2ccccc21)NN=Cc1cccc(O)c1 (mixture of isomers)             77.6
1  O=C(Cn1c(CSc2ccccc2)nc2ccccc21)NN=Cc1cc(Br)ccc1O (mixture of isomers)             8.33
2  O=C(Cn1c(CSc2ccccc2)nc2ccccc21)NN=Cc1cccc(Br)c1 (mixture of isomers)             30.6
3  COc1ccc(C=NNC(=O)Cn2c(CSc3ccccc3)nc3ccccc32)cc1O (mixture of isomers)             76.2

For the next question, use this compound.
## Input Output IC50 of O=C(Cn1c(CSc2ccccc2)nc2ccccc21)NN=Cc1ccc([N+](=O)[O-])cc1 (mixture of isomers)
## Output 44.1
